- tested target: MK2 (Homo sapiens)
- assay name: MK2 degradation in human SW1353 cells (MSD, 24 h)
- Assay type: cell-based
- Parameters: endogenous in cells; host or cells: SW-1353 (ATCC HTB-94)
- condition details: read-out: MK2 MSD SW 1353 24 h Dmax %
- Method: MK2 Degradation in Human SW1353 Cells […] After 3 more washes, the secondary detection antibody (SULFO-Tag anti rabbit antibody R32AB-5) was added at a final concentration of 1 microgram per ml at 25 microlitres per well and shaken at room temperature for 1 hour at 600 rpm. After 3 more washes, the 1×MSD (diluted from 5× concentrate with water) reading buffer was added at 150 microlitres per well and read on the MSD instrument Meso Sector S 600. […]
Known Dmax of a selection of compounds

The following compounds have reported results that may help.
1) C[C@@H]1CNc2c(sc3ccc4nc(-c5cccc(N6CCC(CN7CCC(c8cccc9c8n(C)c(=O)n9C8CCC(=O)NC8=O)CC7)CC6)c5)ccc4c23)C(=O)N1 (some centres unmarked) = > 75%
2) Cn1c(=O)n(C2CCC(=O)NC2=O)c2cccc(N3CCC(CN4CCN(c5ccc(-c6cc(-c7cc8c([nH]7)CCNC8=O)ccn6)cc5)CC4)CC3)c21 (centres unmarked) = > 75%
3) C[C@@H]1CNc2c(sc3ccc4nc(-c5cc(C#N)cc(N6CCN(CC7CCN(c8ccc9c(c8)n(C)c(=O)n9C8CCC(=O)NC8=O)CC7)CC6)c5)ccc4c23)C(=O)N1 (some centres unmarked) = > 75%
4) C[C@@H]1CNc2c(sc3ccc4nc(-c5ccc(N6CCN(CCCCCc7cccc8c7n(C)c(=O)n8C7CCC(=O)NC7=O)CC6)cc5)ccc4c23)C(=O)N1 (some centres unmarked) = > 75%
5) C[C@@H]1CNc2c(sc3ccc4nc(-c5cnc(N6CCN(CC7CCN(c8cccc9c8n(C)c(=O)n9C8CCC(=O)NC8=O)CC7)CC6)nc5)ccc4c23)C(=O)N1 (some centres unmarked) = > 75%

Would you kindly look at the next entry?
Req: Returns the measured Dmax for the input compound. Input: C[C@@H]1CNc2c(sc3ccc4nc(-c5ccc(N6CCN(CC7CN(c8cccc9c8n(C)c(=O)n9C8CCC(=O)NC8=O)C7)CC6)nc5)ccc4c23)C(=O)N1 (some centres unmarked)
Resp: > 75%

###

- tested target: MK2 (Homo sapiens, UniProt P49137)
- Sequence (P49137 whole entry): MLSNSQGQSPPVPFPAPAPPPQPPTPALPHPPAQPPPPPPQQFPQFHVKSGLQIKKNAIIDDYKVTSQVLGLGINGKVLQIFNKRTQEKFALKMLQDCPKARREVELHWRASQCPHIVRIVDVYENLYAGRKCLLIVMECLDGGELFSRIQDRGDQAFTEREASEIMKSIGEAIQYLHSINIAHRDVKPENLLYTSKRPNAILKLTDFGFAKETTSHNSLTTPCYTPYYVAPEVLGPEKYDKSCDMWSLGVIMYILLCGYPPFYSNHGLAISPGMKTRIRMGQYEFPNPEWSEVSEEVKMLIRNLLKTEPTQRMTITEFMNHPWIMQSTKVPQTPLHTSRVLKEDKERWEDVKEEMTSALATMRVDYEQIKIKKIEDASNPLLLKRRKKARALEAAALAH
- assay name: MK2 degradation in human THP-1 monocytic cells (MSD, 24 h)
- Format: cell-based
- Design: endogenous in cells
- condition details: THP-1, THP-1 cells
Known Dmax of a selection of compounds

1. C[C@@H]1CNc2c(sc3ccc4nc(-c5ccc(CNC(=O)CCCCCCCCCc6cccc7c6n(C)c(=O)n7C6CCC(=O)NC6=O)cc5)ccc4c23)C(=O)N1 (stereo partly drawn) = > 75%
2. C[C@@H]1CNc2c(sc3ccc4nc(N5C[C@@H]6C[C@H]5CN6CC5CCN(c6cccc7c6n(C)c(=O)n7C6CCC(=O)NC6=O)CC5)ccc4c23)C(=O)N1 (stereo partly drawn) = < 50%
3. C[C@@H]1CNc2c(sc3ccc4nc(-c5ccc(N6CCN(CCCCCCCCc7cccc8c7n(C)c(=O)n8C7CCC(=O)NC7=O)CC6)cc5)ccc4c23)C(=O)N1 (stereo partly drawn) = > 75%
4. C[C@@H]1CNc2c(sc3ccc4nc(N5C6CCC5CN(CC5CCN(c7cccc8c7n(C)c(=O)n8C7CCC(=O)NC7=O)CC5)C6)ccc4c23)C(=O)N1 (stereo partly drawn) = < 50%
5. C[C@@H]1CNc2c(sc3ccc4nc(-c5ccc(C#CCCNC(=O)CCCCCCCc6ccc7c(c6)n(C)c(=O)n7C6CCC(=O)NC6=O)cc5)ccc4c23)C(=O)N1 (stereo partly drawn) = > 75%

Req: Under MK2 (Homo sapiens, UniProt P49137): Dmax value of C[C@@H]1CNc2c(sc3ccc4nc(-c5cccc(N6CCN(CCN7CCC(CCc8cccc9c8n(C)c(=O)n9C8CCC(=O)NC8=O)CC7)CC6)c5)ccc4c23)C(=O)N1 (stereo partly drawn) ?
Resp: > 75%

Req: Query Cn1c(=O)n(C2CCC(=O)NC2=O)c2ccc(N3CCC4(CC3)CC(N3CCN(c5cc(-c6cc7c([nH]6)C6(CC6)CNC7=O)ccn5)CC3)C4)cc21 (stereo not drawn) next
Resp: < 50%

Req: Query C[C@@H]1CNc2c(sc3ccc4nc(-c5ccc(N6CCN(C[C@@H]7CCN(c8ccc9c(c8)n(C)c(=O)n9C8CCC(=O)NC8=O)C7)CC6)cc5)ccc4c23)C(=O)N1 (stereo partly drawn) next
Resp: 50 to 75%

Req: Query C#Cc1cc(-c2ccc3c(ccc4sc5c(c43)NC[C@@H](C)NC5=O)n2)cc(N2CCN(CC3CCN(c4ccc5c(c4)n(C)c(=O)n5C4CCC(=O)NC4=O)CC3)CC2)c1 (stereo partly drawn) next
Resp: > 75%

Req: Query C[C@@H]1CNc2c(sc3ccc4nc(-c5ccc(N6CCN(CCCc7ccc8c(c7)n(C)c(=O)n8C7CCC(=O)NC7=O)CC6)cc5)ccc4c23)C(=O)N1 (stereo partly drawn) next
Resp: > 75%

Req: Query C[C@@H]1CNc2c(sc3ccc4nc(-c5ccc(N6CCN(CCCc7ccc8c(c7)n(C)c(=O)n8C7CCC(=O)NC7=O)CC6)cc5Cl)ccc4c23)C(=O)N1 (stereo partly drawn) next
Resp: < 50%

Req: Query Cn1c(=O)n(C2CCC(=O)NC2=O)c2cccc(CCCCCN3CCN(c4ccc(F)c(-c5cc(-c6cc7c([nH]6)CCNC7=O)ccn5)c4)CC3)c21 (stereo not drawn) next
Resp: < 50%

Req: Query C[C@@H]1CNc2c(sc3ccc4nc(-c5ccc(N6CCN(CC7CCN(c8ccc9c(c8)n(C)c(=O)n9C8CCC(=O)NC8=O)CC7)CC6)nc5)ccc4c23)C(=O)N1 (stereo partly drawn) next
Resp: > 75%

###

- tested target: UniProt:P49137
- assay name: MK2 degradation in human SW1353 cells (MSD, 24 h)
- Assay type: cell-based
- Set-up: endogenous in cells; host or cells: SW-1353 (ATCC HTB-94)
- condition details: read-out: MK2 MSD SW 1353 24 h Dmax %
observed property: Dmax

The following compounds have reported results that may help.
1) C[C@@H]1CNc2c(sc3ccc4nc(-c5cccc(N6CCC7(CC6)CN(CCCCCCc6cccc8c6n(C)c(=O)n8C6CCC(=O)NC6=O)C7)c5)ccc4c23)C(=O)N1 (stereo partly drawn) = > 75%
2) C[C@@H]1CNc2c(sc3ccc4nc(-c5cncc(N6CCN(CCCc7ccc8c(c7)n(C)c(=O)n8C7CCC(=O)NC7=O)CC6)c5)ccc4c23)C(=O)N1 (stereo partly drawn) = > 75%

Would you kindly look at the next entry?
Req: Returns the measured Dmax for the input compound. Input: C[C@@H]1CNc2c(sc3ccc4nc(-c5ccc(N6CCC(CN7CCC(c8ccc9c(c8)n(C)c(=O)n9C8CCC(=O)NC8=O)CC7)CC6)cc5)ccc4c23)C(=O)N1 (stereo partly drawn)
Resp: > 75%

###

- tested target: MK2 (Homo sapiens)
- assay name: MK2 degradation in human SW1353 cells (MSD, 24 h)
- Format: cell-based
- Design: endogenous in cells; host or cells: SW-1353 (ATCC HTB-94)
- condition details: read-out: MK2 MSD SW1353 degradation 24 h GMean External Abs DC50
observed property: DC50

The following compounds have reported results that may help.
1. C[C@@H]1CNc2c(sc3ccc4nc(N5CCC(N6CCC7(CC6)CN(c6ccc8c(c6)n(C)c(=O)n8C6CCC(=O)NC6=O)C7)CC5)ccc4c23)C(=O)N1 (stereo partly shown) = < 1 nM
2. C[C@@H]1CNc2c(sc3ccc4nc(-c5ccc(N6CCN(CCOc7ccc8c(c7)n(C)c(=O)n8C7CCC(=O)NC7=O)CC6)cc5)ccc4c23)C(=O)N1 (stereo partly shown) = < 1 nM
3. C[C@@H]1CNc2c(sc3ccc4nc(N5CCC(CN6CC7(C6)CN(c6ccc8c(c6)n(C)c(=O)n8C6CCC(=O)NC6=O)C7)CC5)ccc4c23)C(=O)N1 (stereo partly shown) = < 1 nM
4. Cn1c(=O)n(C2CCC(=O)NC2=O)c2ccc(N3CCC(CN4CCN(c5ccc6occc6c5-c5cc(Nc6ccnc(N)n6)cc6cn[nH]c56)CC4)CC3)cc21 (stereo not shown) = > 100 nM
5. C[C@@H]1CNc2c(sc3ccc4nc(-c5cc(N6CCC(CN7CCN(c8cccc9c8n(C)c(=O)n9C8CCC(=O)NC8=O)CC7)CC6)ccc5F)ccc4c23)C(=O)N1 (stereo partly shown) = 1 to 10 nM
6. C[C@@H]1CNc2c(sc3ccc4nc(-c5cccc(C#CCNC(=O)COCCOCCc6cccc7c6n(C)c(=O)n7C6CCC(=O)NC6=O)c5)ccc4c23)C(=O)N1 (stereo partly shown) = 1 to 10 nM

Would you kindly look at the next entry?
Req: Returns the measured DC50 for the input compound. Input: C[C@@H]1CNc2c(sc3ccc4nc(-c5ccc(N6CCN(CCc7ccc8c(c7)n(C)c(=O)n8C7CCC(=O)NC7=O)CC6)cc5)ccc4c23)C(=O)N1 (stereo partly shown)
Resp: < 1 nM
